apparent Kd (screen) listing for selected binders.
- TGT: T1, TNFR1 (Homo sapiens, UniProt P19438)
- T1 chain: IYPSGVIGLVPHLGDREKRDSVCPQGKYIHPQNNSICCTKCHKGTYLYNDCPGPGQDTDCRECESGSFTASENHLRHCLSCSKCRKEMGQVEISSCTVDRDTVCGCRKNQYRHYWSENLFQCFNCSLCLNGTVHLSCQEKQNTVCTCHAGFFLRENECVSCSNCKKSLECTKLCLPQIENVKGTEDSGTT
- PROTOCOL DETAILS: yeast display SC50
Just the number please, in nM, no unit attached.

Below are worked cases with known answers.
BINDER	apparent Kd (screen), nM
V95T (designed binder) SMEEEVEKAAKEYEKKKKEAIEKHLEKLKAKDKEAAERFLKELEEAAKEYAKDEAKTMSEEEAKRRAKKYKEKVLLSELSEEEQKEIKEAEEKLTRTILKYVEEAAK	13.8
S1T (designed binder) TMEEEVEKAAKEYEKKKKEAIEKHLEKLKAKDKEAAERFLKELEEAAKEYAKDEAKTMSEEEAKRRAKKYKEKVLLSELSEEEQKEIKEAEEKLVRTILKYVEEAAK	0.49
S59I (designed binder) SMEEEVEKAAKEYEKKKKEAIEKHLEKLKAKDKEAAERFLKELEEAAKEYAKDEAKTMIEEEAKRRAKKYKEKVLLSELSEEEQKEIKEAEEKLVRTILKYVEEAAK	2.73

Report measured apparent Kd (screen); entry is A10S (designed binder) SMEEEVEKASKEYEKKKKEAIEKHLEKLKAKDKEAAERFLKELEEAAKEYAKDEAKTMSEEEAKRRAKKYKEKVLLSELSEEEQKEIKEAEEKLVRTILKYVEEAAK
0.446

Report measured apparent Kd (screen); entry is K88A (designed binder) SMEEEVEKAAKEYEKKKKEAIEKHLEKLKAKDKEAAERFLKELEEAAKEYAKDEAKTMSEEEAKRRAKKYKEKVLLSELSEEEQKEIAEAEEKLVRTILKYVEEAAK
0.405

Report measured apparent Kd (screen); entry is Y101I (designed binder) SMEEEVEKAAKEYEKKKKEAIEKHLEKLKAKDKEAAERFLKELEEAAKEYAKDEAKTMSEEEAKRRAKKYKEKVLLSELSEEEQKEIKEAEEKLVRTILKIVEEAAK
0.869

Report measured apparent Kd (screen); entry is E72W (designed binder) SMEEEVEKAAKEYEKKKKEAIEKHLEKLKAKDKEAAERFLKELEEAAKEYAKDEAKTMSEEEAKRRAKKYKWKVLLSELSEEEQKEIKEAEEKLVRTILKYVEEAAK
0.446

Report measured apparent Kd (screen); entry is A35F (designed binder) SMEEEVEKAAKEYEKKKKEAIEKHLEKLKAKDKEFAERFLKELEEAAKEYAKDEAKTMSEEEAKRRAKKYKEKVLLSELSEEEQKEIKEAEEKLVRTILKYVEEAAK
0.956

Report measured apparent Kd (screen); entry is E89S (designed binder) SMEEEVEKAAKEYEKKKKEAIEKHLEKLKAKDKEAAERFLKELEEAAKEYAKDEAKTMSEEEAKRRAKKYKEKVLLSELSEEEQKEIKSAEEKLVRTILKYVEEAAK
0.49

Report measured apparent Kd (screen); entry is K71G (designed binder) SMEEEVEKAAKEYEKKKKEAIEKHLEKLKAKDKEAAERFLKELEEAAKEYAKDEAKTMSEEEAKRRAKKYGEKVLLSELSEEEQKEIKEAEEKLVRTILKYVEEAAK
5.31

Report measured apparent Kd (screen); entry is Y13K (designed binder) SMEEEVEKAAKEKEKKKKEAIEKHLEKLKAKDKEAAERFLKELEEAAKEYAKDEAKTMSEEEAKRRAKKYKEKVLLSELSEEEQKEIKEAEEKLVRTILKYVEEAAK
7.07

Report measured apparent Kd (screen); entry is K56P (designed binder) SMEEEVEKAAKEYEKKKKEAIEKHLEKLKAKDKEAAERFLKELEEAAKEYAKDEAPTMSEEEAKRRAKKYKEKVLLSELSEEEQKEIKEAEEKLVRTILKYVEEAAK
24.4

Report measured apparent Kd (screen); entry is A55C (designed binder) SMEEEVEKAAKEYEKKKKEAIEKHLEKLKAKDKEAAERFLKELEEAAKEYAKDECKTMSEEEAKRRAKKYKEKVLLSELSEEEQKEIKEAEEKLVRTILKYVEEAAK
11.4

Report measured apparent Kd (screen); entry is E89P (designed binder) SMEEEVEKAAKEYEKKKKEAIEKHLEKLKAKDKEAAERFLKELEEAAKEYAKDEAKTMSEEEAKRRAKKYKEKVLLSELSEEEQKEIKPAEEKLVRTILKYVEEAAK
10.4

Report measured apparent Kd (screen); entry is E42P (designed binder) SMEEEVEKAAKEYEKKKKEAIEKHLEKLKAKDKEAAERFLKPLEEAAKEYAKDEAKTMSEEEAKRRAKKYKEKVLLSELSEEEQKEIKEAEEKLVRTILKYVEEAAK
4.83

Report measured apparent Kd (screen); entry is S80I (designed binder) SMEEEVEKAAKEYEKKKKEAIEKHLEKLKAKDKEAAERFLKELEEAAKEYAKDEAKTMSEEEAKRRAKKYKEKVLLSELIEEEQKEIKEAEEKLVRTILKYVEEAAK
1.69
